# System: U251 CNS
# method: NCI tumour cell line growth inhibition, 48 h
measurementType: TGI

Problem: Report TGI for "Cn1c(=S)c2[nH]c(SCCN3CCCC3)nc2n(C)c1=O" please.
Result: > 100 µM

Problem: // next record COc1cc2c(cc1OC)C(N)CC2=O (stereo unspecified)
Result: > 100 µM

Problem: // next record CCC[CH2][Sn]([CH2]CCC)([O]C(=O)C1CCC(=O)N1)[O]C(=O)C1CCC(=O)N1 (stereo unspecified)
Result: 0.33 µM

Problem: // next record "Cc1ccc(S(=O)(=O)NC(=O)Nc2ccc(S(N)(=O)=O)cc2S(N)(=O)=O)cc1"
Result: > 100 µM

Problem: // next record "N#Cc1ccc(C(c2ccc(C#N)cc2)n2cncn2)cc1"
Result: > 5000 µM

Problem: // next record "C/C=C/C(=O)N1C(=O)OC[C@@H]1c1ccccc1"
Result: 48.5 µM

Problem: // next record CC(C)(C)C(=O)O[C@@H]1COC2C(O)COC21 (stereo partly specified)
Result: > 100 µM

Problem: // next record "O=C(NCCCCCCCCNC(=O)c1cccc2ccccc12)c1cccc2ccccc12"
Result: 45.6 µM

Problem: // next record O=C1c2c(O)cc(O)cc2OC(c2ccc(O)cc2O)C1O (stereo unspecified)
Result: > 100 µM

Problem: // next record CC(=O)Nc1ccc(C(=O)NN2C(=O)C(Cl)C2c2ccccc2O)cc1 (stereo unspecified)
Result: > 100 µM

Problem: // next record "COc1ccc(-c2cc(=O)c3c(O)cc(C)cc3o2)cc1OC"
Result: > 100 µM

---

# System: TK-10 renal
# method: NCI tumour cell line growth inhibition, 48 h
What TGI was measured for each of the following?

Problem: Report TGI for "COc1ccc(C(=O)COc2cccc(/C=C3\CSc4ccc(C)cc4C3=O)c2)cc1" please.
Result: > 100 µM

Problem: // next record "NNc1[nH]c(=S)[nH]c1C(N)=O"
Result: > 100 µM

Problem: // next record OC1CN2Cc3cc4c(cc3[C@]13C=C[C@@H](O)CC23)OCO4 (stereo partly specified)
Result: 93.3 µM

Problem: // next record C=C(Cl)C(=C)CCC(Cl)C(C)C (stereo unspecified)
Result: > 100 µM

Problem: // next record "CCS(=O)(=O)CCn1cnc2c1c(=O)n(C)c(=O)n2C"
Result: > 100 µM

Problem: // next record O=C1C2c3[nH]c4ccccc4c3[C@@H]3CCCCC3C2C(=O)N1c1ccccc1 (stereo partly specified)
Result: 68.7 µM

---

# System: MALME-3M melanoma
# method: NCI tumour cell line growth inhibition, 48 h
What GI50 was measured for each of the following?

Problem: Report GI50 for "O=C1CCc2c(sc3[nH]c(=S)n(Cc4ccccc4)c(=O)c23)C1" please.
Result: 4.53 µM

Problem: // next record "Nc1c(C(=O)Nc2ccccc2F)sc2nc3c(cc12)C(=O)CCC3"
Result: 1.44 µM

Problem: // next record "Cc1nc(N)sc1C(=O)Nc1cc(C(=O)NCCCN(C)C)n(C)c1"
Result: > 100 µM

Problem: // next record "CC(=O)[O][Hg][c]1ccccc1"
Result: 0.506 µM

Problem: // next record "CS(=O)(=O)CCNCc1ccc(-c2ccc3ncnc(Nc4ccc(OCc5ccccc5)c(Cl)c4)c3c2)o1"
Result: 5.18 µM
